B1: Twister Ribozyme (parent)
chain: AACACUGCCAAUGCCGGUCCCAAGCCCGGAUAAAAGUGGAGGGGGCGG

- Variants of: B1
- PROTOCOL DESCRIPTION: self-cleavage, relative activity (ratio to wild type); higher = more cleavage; co-transcriptional
PROPERTY LABEL: self-cleavage

>  <MUTATION NOTATION>
A11U C25U

>  <OBSERVED RESULT>
1.03

$$$$
>  <MUTATION NOTATION>
G13A A30G

>  <OBSERVED RESULT>
0.742

$$$$
>  <MUTATION NOTATION>
U37C C46G

>  <OBSERVED RESULT>
0.706

$$$$
>  <MUTATION NOTATION>
G24C A30G

>  <OBSERVED RESULT>
0.096

$$$$
>  <MUTATION NOTATION>
U6C G48C

>  <OBSERVED RESULT>
0.829

$$$$
>  <MUTATION NOTATION>
U6C U37G

>  <OBSERVED RESULT>
0.181

$$$$
>  <MUTATION NOTATION>
U12G U31G

>  <OBSERVED RESULT>
0.834

$$$$
>  <MUTATION NOTATION>
C21A A35C

>  <OBSERVED RESULT>
0.083

$$$$
>  <MUTATION NOTATION>
G42C G45U

>  <OBSERVED RESULT>
0.164

$$$$
>  <MUTATION NOTATION>
A2G U6A

>  <OBSERVED RESULT>
0.192

$$$$
>  <MUTATION NOTATION>
A23G A33C

>  <OBSERVED RESULT>
0.187

$$$$
>  <MUTATION NOTATION>
A23C G38U

>  <OBSERVED RESULT>
0.107

$$$$
>  <MUTATION NOTATION>
G39C G45C

>  <OBSERVED RESULT>
0.105

$$$$
>  <MUTATION NOTATION>
A1C C5U

>  <OBSERVED RESULT>
0.277

$$$$
>  <MUTATION NOTATION>
U12A C15A

>  <OBSERVED RESULT>
0.901

$$$$
>  <MUTATION NOTATION>
G38U C46U

>  <OBSERVED RESULT>
0.864

$$$$
>  <MUTATION NOTATION>
C21G G47U

>  <OBSERVED RESULT>
0.142

$$$$
>  <MUTATION NOTATION>
A10U U31A

>  <OBSERVED RESULT>
0.694

$$$$
>  <MUTATION NOTATION>
C25U A30G

>  <OBSERVED RESULT>
0.911

$$$$
>  <MUTATION NOTATION>
A4U G24C

>  <OBSERVED RESULT>
0.0697

$$$$
>  <MUTATION NOTATION>
A10G G45U

>  <OBSERVED RESULT>
0.883

$$$$
>  <MUTATION NOTATION>
G24A A33U

>  <OBSERVED RESULT>
0.0989

$$$$
>  <MUTATION NOTATION>
G38C G47U

>  <OBSERVED RESULT>
0.76

$$$$
>  <MUTATION NOTATION>
A34G G45A

>  <OBSERVED RESULT>
0.721

$$$$
>  <MUTATION NOTATION>
G17A C20G

>  <OBSERVED RESULT>
0.0402

$$$$
